# System: LRSE, linezolid-resistant strain of Staphylococcus epidermidis (1 strain)
# protocol-text: In vitro antibacterial activity on linezolid-resistant strains, MIC in MHB broth, 96-well plate
# Type: cell-based
# assay-context: LRSE (1 strain)
property-label: MIC (µg/mL)

>>> reading("O=C1OCCN1c1ccc(-c2ccc3c(c2)OC[C@H]2[C@H](CO)OC(=O)N32)cn1")
2
>>> reading("N#Cc1ccc(-c2ccc3c(c2)OC[C@H]2[C@H](COC(=O)CCC(=O)O)OC(=O)N32)cn1")
4
>>> reading("C[C@@H](O)C(O)c1ccc(-c2ccc3c(c2)OC[C@H]2[C@H](CO)OC(=O)N32)cn1 (stereo partly shown)")
4
>>> reading("N#Cc1ccc(-c2ccc3c(c2)OC[C@H]2[C@H](CO)OC(=O)N32)cn1")
4
>>> reading("O=C1O[C@@H](CO)[C@@H]2COc3cc(-c4ccc(Cn5cncn5)nc4)ccc3N12")
4
>>> reading("CC(=O)NC[C@H]1CN(c2ccc(N3CCOCC3)c(F)c2)C(=O)O1 [LZ, linezolid, reference compound]")
16
>>> reading("C[C@@H](O)C(=O)c1ccc(-c2ccc3c(c2)OC[C@H]2[C@H](CO)OC(=O)N32)cn1")
4

###

# System: Staphylococcus epidermidis sensitive strains (5 strains)
# protocol-text: In vitro antibacterial activity, MIC by agar double dilution method
# Assay type: cell-based
# assay-context: clinical isolates
property-label: MIC

>>> reading("O=C1COCCN1c1ccc(-c2ccc3c(c2)OC[C@H]2[C@H](CO)OC(=O)N32)cn1 [Compound 19]")
"1 to 2 µg/mL"
>>> reading("O=C1O[C@@H](CO)[C@@H]2COc3cc(-c4ccc(CO)nc4)ccc3N12 [Compound 9]")
"0.5 µg/mL"
>>> reading("N#Cc1ccc(-c2ccc3c(c2)OC[C@H]2[C@H](CO)OC(=O)N32)cn1 [Compound 3]")
"0.25 µg/mL"
>>> reading("CN1C[C@@H](c2ccc(-c3ccc4c(c3)OC[C@H]3[C@H](CO)OC(=O)N43)cn2)OC1=O [Compound 27]")
"1 µg/mL"
>>> reading("C[C@@H](O)C(O)c1ccc(-c2ccc3c(c2)OC[C@H]2[C@H](CO)OC(=O)N32)cn1 (stereo partly shown) [Compound 18]")
"1 to 2 µg/mL"
>>> reading("NCc1ccc(-c2ccc3c(c2)OC[C@H]2[C@H](CO)OC(=O)N32)cn1 [Compound 30]")
"1 to 2 µg/mL"
>>> reading("CC(O)c1ccc(-c2ccc3c(c2)OC[C@H]2[C@H](CO)OC(=O)N32)cn1 (stereo partly shown) [Compound 8]")
"1 µg/mL"
>>> reading("O=C1O[C@@H](CO)[C@@H]2COc3cc(-c4ccc(C(O)C5CC5)nc4)ccc3N12 (stereo partly shown) [Compound 6]")
"0.5 to 1 µg/mL"
>>> reading("O=C1OC(c2ccc(-c3ccc4c(c3)OC[C@H]3[C@H](CO)OC(=O)N43)cn2)CN1Cc1ccccc1 (stereo partly shown) [Compound 16]")
"1 to 2 µg/mL"
>>> reading("CC(C)N1CC(c2ccc(-c3ccc4c(c3)OC[C@H]3[C@H](CO)OC(=O)N43)cn2)OC1=O (stereo partly shown) [Compound 15]")
"1 to 2 µg/mL"
>>> reading("CN1CCN(c2ccc(-c3ccc4c(c3)OC[C@H]3[C@H](CO)OC(=O)N43)cn2)CC1 [Compound 12]")
"2 to 4 µg/mL"
>>> reading("Cc1cc(C#N)ncc1-c1ccc2c(c1)OC[C@H]1[C@H](CO)OC(=O)N21 [Compound 21]")
"0.25 to 0.5 µg/mL"
>>> reading("NC1(c2ccc(-c3ccc4c(c3)OC[C@H]3[C@H](CO)OC(=O)N43)cn2)CC1 [Compound 29]")
"1 µg/mL"
>>> reading("Cc1cc(N2CCOC2=O)ncc1-c1ccc2c(c1)OC[C@H]1[C@H](CO)OC(=O)N21 [Compound 22]")
"0.5 to 1 µg/mL"
>>> reading("O=C1O[C@@H](CO)[C@@H]2COc3cc(-c4ccc(N5CCC(O)CC5)nc4)ccc3N12 [Compound 11]")
"2 to 4 µg/mL"
>>> reading("O=C1O[C@@H](CO)[C@@H]2COc3cc(-c4ccc(N5C[C@@H]6CCCN[C@@H]6C5)nc4)ccc3N12 [Compound 32]")
"4 to 8 µg/mL"
>>> reading("Cn1nnc(-c2ccc(-c3ccc4c(c3)OC[C@H]3[C@H](CO)OC(=O)N43)cn2)n1 [Compound 17]")
"1 to 2 µg/mL"
>>> reading("O=C1O[C@@H](CO)[C@@H]2COc3cc(-c4ccc(Cn5cncn5)nc4)ccc3N12 [Compound 2]")
"0.5 to 1 µg/mL"
>>> reading("O=C1OC(CO)CN1c1ccc(-c2ccc3c(c2)OC[C@H]2[C@H](CO)OC(=O)N32)cn1 (stereo partly shown) [Compound 24]")
"0.25 to 0.5 µg/mL"
>>> reading("CN1CC(c2ccc(-c3ccc4c(c3)OC[C@H]3[C@H](CO)OC(=O)N43)cn2)OC1=O (stereo partly shown) [Compound 14]")
"0.25 to 0.5 µg/mL"
>>> reading("CC(C)(O)c1ccc(-c2ccc3c(c2)OC[C@H]2[C@H](CO)OC(=O)N32)cn1 [Compound 7]")
"1 to 4 µg/mL"
>>> reading("CN1CCN(c2ccc(-c3ccc4c(c3)OC[C@H]3[C@H](CO)OC(=O)N43)cn2)C(=O)C1 [Compound 20]")
"2 to 4 µg/mL"
>>> reading("CN1C[C@H](c2ccc(-c3ccc4c(c3)OC[C@H]3[C@H](CO)OC(=O)N43)cn2)OC1=O [Compound 28]")
"2 µg/mL"
>>> reading("C[C@@H](O)C(=O)c1ccc(-c2ccc3c(c2)OC[C@H]2[C@H](CO)OC(=O)N32)cn1 [Compound 1]")
"0.125 to 0.5 µg/mL"
>>> reading("O=C1OCCN1c1ccc(-c2ccc3c(c2)OC[C@H]2[C@H](CO)OC(=O)N32)cn1 [Compound 5]")
"0.5 to 1 µg/mL"
>>> reading("CN1CCC[C@H]2CN(c3ccc(-c4ccc5c(c4)OC[C@H]4[C@H](CO)OC(=O)N54)cn3)C[C@H]21 [Compound 23]")
"4 to 8 µg/mL"
>>> reading("CC(=O)c1ccc(-c2ccc3c(c2)OC[C@H]2[C@H](CO)OC(=O)N32)cn1 [Compound 13]")
"4 µg/mL"
>>> reading("NCC1CN(c2ccc(-c3ccc4c(c3)OC[C@H]3[C@H](CO)OC(=O)N43)cn2)C(=O)O1 (stereo partly shown) [Compound 33]")
"0.5 to 1 µg/mL"
>>> reading("O=C1O[C@@H](CO)[C@@H]2COc3cc(-c4ccc(C5(O)CCCC5)nc4)ccc3N12 [Compound 10]")
"1 to 2 µg/mL"
>>> reading("O=C1O[C@@H](CO)CN1c1ccc(-c2ccc3c(c2)OC[C@H]2[C@H](CO)OC(=O)N32)cn1 [Compound 26]")
"0.5 to 1 µg/mL"
>>> reading("CC(=O)NC[C@H]1CN(c2ccc(N3CCOCC3)c(F)c2)C(=O)O1 [LZ, linezolid, reference compound]")
"1 µg/mL"
